The reported numbers originate from paper PMC7730235.

pIC50: −log10 of the molar value.
Reported values: pIC50 for EGFR (Homo sapiens, UniProt P00533), one per item.
QUANTITY: pIC50

COMPOUND: C=CC(=O)Nc1cccc(-c2c[nH]c3ncc(NC(=O)c4cccs4)cc23)c1 [Compound 12c]
QUANTITY: pIC50
MODIFIER: =
MEASURED NUMBER: 7.92

COMPOUND: C=CC(=O)Nc1cccc(-c2c[nH]c3ncc(NC(=O)C4CCCC4)cc23)c1 [Compound 12a]
QUANTITY: pIC50
MODIFIER: =
MEASURED NUMBER: 6.80

COMPOUND: C=CC(=O)Nc1cccc(-c2c[nH]c3ncc(C(N)=O)cc23)c1 [Compound 10a]
QUANTITY: pIC50
MODIFIER: <
MEASURED NUMBER: 5.00

====

// reported IC50 for each item listed
Target: BLK (Homo sapiens, UniProt P51451)
Sequence (P51451 whole entry): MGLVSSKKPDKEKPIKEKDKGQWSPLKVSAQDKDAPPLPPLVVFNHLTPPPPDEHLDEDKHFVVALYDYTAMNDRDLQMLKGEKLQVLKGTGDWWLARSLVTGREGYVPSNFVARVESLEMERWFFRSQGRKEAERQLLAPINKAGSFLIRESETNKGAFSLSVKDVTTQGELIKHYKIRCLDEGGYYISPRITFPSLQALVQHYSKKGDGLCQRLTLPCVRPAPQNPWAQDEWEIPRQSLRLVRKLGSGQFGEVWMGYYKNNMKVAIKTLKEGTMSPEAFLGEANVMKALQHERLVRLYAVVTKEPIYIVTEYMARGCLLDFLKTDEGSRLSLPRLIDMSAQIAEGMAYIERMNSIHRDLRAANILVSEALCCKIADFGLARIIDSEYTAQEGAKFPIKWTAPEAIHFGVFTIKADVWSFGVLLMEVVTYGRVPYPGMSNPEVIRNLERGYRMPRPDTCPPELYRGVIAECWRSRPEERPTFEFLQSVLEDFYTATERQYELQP
QUANTITY: IC50 (µM)

MOLECULE: C=CC(=O)Nc1cccc(-c2c[nH]c3ncc(NC(=O)C4CCCC4)cc23)c1 [Compound 12a]
SCALE UNIT: µM
MEASURED NUMBER: 0.052
//
MOLECULE: C=CC(=O)Nc1cccc(-c2c[nH]c3ncc(NC(=O)c4cccs4)cc23)c1 [Compound 12c]
SCALE UNIT: µM
MEASURED NUMBER: 0.03

====

Molecular target: JAK3 (Homo sapiens)
Construct: purchased Reaction Biology Corporation
Test: JAK3 ELISA assay
Format: biochemical
Conditions: Determined in a JAK3 ELISA assay

COMPOUND: C=CC(=O)Nc1cccc(-c2c[nH]c3ncc(C(=O)NC4CCCC4)cc23)c1 [Compound 11a]
IC50: > 10 µM

====

Target: JAK3 (Homo sapiens, UniProt P52333)
Construct: purchased Reaction Biology Corporation
Sequence (P52333 whole entry): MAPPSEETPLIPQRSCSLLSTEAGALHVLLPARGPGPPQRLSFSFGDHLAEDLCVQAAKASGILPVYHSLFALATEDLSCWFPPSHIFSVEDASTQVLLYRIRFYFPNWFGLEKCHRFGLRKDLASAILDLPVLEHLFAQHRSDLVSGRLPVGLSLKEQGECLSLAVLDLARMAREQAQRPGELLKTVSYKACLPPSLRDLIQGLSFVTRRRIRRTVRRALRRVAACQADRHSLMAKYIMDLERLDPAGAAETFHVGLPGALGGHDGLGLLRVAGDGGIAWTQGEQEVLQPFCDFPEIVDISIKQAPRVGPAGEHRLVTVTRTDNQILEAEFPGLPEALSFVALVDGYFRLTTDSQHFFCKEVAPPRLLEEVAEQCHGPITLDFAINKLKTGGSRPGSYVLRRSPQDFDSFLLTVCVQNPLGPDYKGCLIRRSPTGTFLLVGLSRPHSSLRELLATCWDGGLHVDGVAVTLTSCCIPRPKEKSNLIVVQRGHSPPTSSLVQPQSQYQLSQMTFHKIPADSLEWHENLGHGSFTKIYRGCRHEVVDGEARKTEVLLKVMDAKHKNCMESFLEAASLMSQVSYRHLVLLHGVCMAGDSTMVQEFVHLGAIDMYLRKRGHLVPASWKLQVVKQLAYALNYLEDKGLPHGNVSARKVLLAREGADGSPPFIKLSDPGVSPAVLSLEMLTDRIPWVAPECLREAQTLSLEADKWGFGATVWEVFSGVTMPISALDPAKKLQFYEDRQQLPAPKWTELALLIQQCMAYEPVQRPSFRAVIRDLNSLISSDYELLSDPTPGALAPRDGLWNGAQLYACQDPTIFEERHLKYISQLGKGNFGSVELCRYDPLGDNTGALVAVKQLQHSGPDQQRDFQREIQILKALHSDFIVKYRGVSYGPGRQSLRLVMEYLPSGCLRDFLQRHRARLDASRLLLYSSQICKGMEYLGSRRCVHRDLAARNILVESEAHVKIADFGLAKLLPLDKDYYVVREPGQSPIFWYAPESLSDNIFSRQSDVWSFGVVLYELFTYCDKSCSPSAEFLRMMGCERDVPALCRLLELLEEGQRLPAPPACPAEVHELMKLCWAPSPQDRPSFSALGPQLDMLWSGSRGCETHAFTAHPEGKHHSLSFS
Experiment: Radiometric kinase assay (Reaction Biology HotSpot)
Format: biochemical
Settings: radiometric HotSpot, five-dose singlicate, [ATP] = 10 μM
QUANTITY: IC50 (nM)

MOLECULE: C=CC(=O)Nc1cccc(-c2c[nH]c3ncc(C(N)=O)cc23)c1 [Compound 10a]
QUANTITY: IC50
SCALE UNIT: nM
MODIFIER: <
MEASURED NUMBER: 0.1

MOLECULE: C=CC(=O)Nc1cccc(-c2c[nH]c3ncccc23)c1
QUANTITY: IC50
SCALE UNIT: nM
MODIFIER: =
MEASURED NUMBER: 0.2

MOLECULE: C=CC(=O)Nc1cccc(-c2c[nH]c3ncc(NC(=O)C4CCCC4)cc23)c1 [Compound 12a]
QUANTITY: IC50
SCALE UNIT: nM
MODIFIER: =
MEASURED NUMBER: 1340

MOLECULE: C=CC(=O)Nc1cccc(-c2c[nH]c3ncc(NC(=O)c4cccs4)cc23)c1 [Compound 12c]
QUANTITY: IC50
SCALE UNIT: nM
MODIFIER: >
MEASURED NUMBER: 10000

MOLECULE: C=CC(=O)Nc1cccc(-c2c[nH]c3ncc(NC(=O)CC4CCCC4)cc23)c1 [Compound 12g]
QUANTITY: IC50
SCALE UNIT: nM
MODIFIER: >
MEASURED NUMBER: 10000

MOLECULE: C=CC(=O)Nc1cccc(-c2c[nH]c3ncc(NC(=O)c4ccco4)cc23)c1 [Compound 12d]
QUANTITY: IC50
SCALE UNIT: nM
MODIFIER: =
MEASURED NUMBER: 1080

====

Target: BTK (Homo sapiens)
Construct: purchased Reaction Biology Corporation
Sequence (Q06187 whole entry): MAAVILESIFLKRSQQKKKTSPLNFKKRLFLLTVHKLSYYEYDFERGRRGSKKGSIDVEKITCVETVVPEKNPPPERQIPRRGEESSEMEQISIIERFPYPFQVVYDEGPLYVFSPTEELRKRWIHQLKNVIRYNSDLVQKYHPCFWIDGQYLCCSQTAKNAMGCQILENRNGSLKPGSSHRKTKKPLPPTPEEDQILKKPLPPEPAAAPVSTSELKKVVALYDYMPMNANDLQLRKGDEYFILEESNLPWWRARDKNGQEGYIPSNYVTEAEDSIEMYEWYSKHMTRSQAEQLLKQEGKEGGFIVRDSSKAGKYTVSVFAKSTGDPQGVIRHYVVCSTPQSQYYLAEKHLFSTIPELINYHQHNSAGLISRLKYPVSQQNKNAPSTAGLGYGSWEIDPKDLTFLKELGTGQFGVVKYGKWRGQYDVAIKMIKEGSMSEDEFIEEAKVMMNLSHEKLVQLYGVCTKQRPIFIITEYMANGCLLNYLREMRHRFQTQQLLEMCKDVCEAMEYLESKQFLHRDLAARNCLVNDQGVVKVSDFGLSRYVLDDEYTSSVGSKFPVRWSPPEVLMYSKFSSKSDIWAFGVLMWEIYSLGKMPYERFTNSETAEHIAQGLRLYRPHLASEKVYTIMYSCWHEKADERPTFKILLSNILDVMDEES
Test: Radiometric kinase assay (Reaction Biology HotSpot)
Type: biochemical
Details: 200 nM compound, duplicate mean, [ATP] = 10 μM; read-out: Residual Activity @ 200 nM, BTK

COMPOUND: CCC(=O)Nc1cccc(-c2c[nH]c3ncc(NC(=O)C4CCCC4)cc23)c1 [Compound 12b]
SYSTEM NAME: BTK (Homo sapiens)
remaining activity at 0.2 µM / %: 70
--
COMPOUND: C=CC(=O)Nc1cccc(-c2c[nH]c3ncc(C(N)=O)cc23)c1 [Compound 10a]
SYSTEM NAME: BTK (Homo sapiens)
remaining activity at 0.2 µM / %: 18.9
--
COMPOUND: C=CC(=O)Nc1cccc(-c2c[nH]c3ncccc23)c1
SYSTEM NAME: BTK (Homo sapiens)
remaining activity at 0.2 µM / %: 18.2
--
COMPOUND: C=CC(=O)Nc1cccc(-c2c[nH]c3ncc(NC(=O)c4cccs4)cc23)c1 [Compound 12c]
SYSTEM NAME: BTK (Homo sapiens)
remaining activity at 0.2 µM / %: 0.8

====

Measured native (unmodified) BMX fraction, 240 min accompanies every entry in the list below.
Target: kinase domain of BMX (Homo sapiens, UniProt P51813)
Construct: The kinase domains of JAK3 and BMX at 2 μM
Assay: Mass spectrometric investigation of covalent binding to BMX (ESI-TOF)
Conditions: 1.5-fold molar excess of inhibitor, 4 °C, 240 min
QUANTITY: native (unmodified) BMX fraction, 240 min (%)

MOLECULE: CCC(=O)Nc1cccc(-c2c[nH]c3ncccc23)c1 [Compound 9b]
MEASURED NUMBER: 100
--
MOLECULE: CCC(=O)Nc1cccc(-c2c[nH]c3ncc(C(N)=O)cc23)c1 [Compound 10b]
MEASURED NUMBER: 100
--
MOLECULE: CCC(=O)Nc1cccc(-c2c[nH]c3ncc(C(=O)NC4CCCC4)cc23)c1 [Compound 11b]
MEASURED NUMBER: 100
--
MOLECULE: CCC(=O)Nc1cccc(-c2c[nH]c3ncc(NC(=O)C4CCCC4)cc23)c1 [Compound 12b]
MEASURED NUMBER: 100
--
MOLECULE: C=CC(=O)Nc1cccc(-c2c[nH]c3ncc(C(=O)NC4CCCC4)cc23)c1 [Compound 11a]
MEASURED NUMBER: 3

====

Target: Full length BMX (C-terminal NanoLuc fusion) (Homo sapiens, UniProt P51813)
Construct: Full length BMX and BTK was cloned into pFC32K
Sequence (P51813 1-675): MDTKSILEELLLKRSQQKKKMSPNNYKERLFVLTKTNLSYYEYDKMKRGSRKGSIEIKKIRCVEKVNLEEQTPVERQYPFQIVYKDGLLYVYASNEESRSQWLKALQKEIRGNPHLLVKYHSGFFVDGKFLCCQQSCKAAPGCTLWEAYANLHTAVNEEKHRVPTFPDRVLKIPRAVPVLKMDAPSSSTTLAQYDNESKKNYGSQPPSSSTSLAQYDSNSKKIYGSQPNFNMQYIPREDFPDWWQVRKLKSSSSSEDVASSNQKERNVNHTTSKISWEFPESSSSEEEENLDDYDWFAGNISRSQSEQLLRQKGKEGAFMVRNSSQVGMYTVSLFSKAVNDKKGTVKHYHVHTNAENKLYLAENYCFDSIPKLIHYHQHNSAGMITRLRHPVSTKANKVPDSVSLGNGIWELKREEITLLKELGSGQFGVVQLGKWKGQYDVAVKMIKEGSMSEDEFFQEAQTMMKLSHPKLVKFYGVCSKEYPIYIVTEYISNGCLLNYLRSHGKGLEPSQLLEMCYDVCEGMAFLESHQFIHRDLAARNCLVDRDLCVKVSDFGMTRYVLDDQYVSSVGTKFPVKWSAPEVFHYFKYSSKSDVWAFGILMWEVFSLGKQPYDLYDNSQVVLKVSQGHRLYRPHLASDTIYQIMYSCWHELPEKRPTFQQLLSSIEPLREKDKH
Assay: Cellular NanoBRET target engagement assay in HEK293T cells
Settings: 0.5 µM Tracer K4, 2 h incubation
pIC50: −log10 of the molar value.

COMPOUND: C=CC(=O)Nc1cccc(-c2c[nH]c3ncc(C(=O)NC4CCCC4)cc23)c1 [Compound 11a]
MODIFIER: =
pIC50: 5.22
--
COMPOUND: CCC(=O)Nc1cccc(-c2c[nH]c3ncc(NC(=O)C4CCCC4)cc23)c1 [Compound 12b]
MODIFIER: <
pIC50: 5.00
--
COMPOUND: C=CC(=O)Nc1cccc(-c2c[nH]c3ncc(NC(=O)Cc4cccs4)cc23)c1 [Compound 12i]
MODIFIER: =
pIC50: 7.77
--
COMPOUND: CCC(=O)Nc1cccc(-c2c[nH]c3ncc(C(N)=O)cc23)c1 [Compound 10b]
MODIFIER: <
pIC50: 5.00
--
COMPOUND: CCC(=O)Nc1cccc(-c2c[nH]c3ncccc23)c1 [Compound 9b]
MODIFIER: <
pIC50: 5.00

====

// reported remaining activity at 0.2 µM per item
Target: HER2 (Homo sapiens)
Construct: purchased Reaction Biology Corporation
Sequence (P04626 23-1255): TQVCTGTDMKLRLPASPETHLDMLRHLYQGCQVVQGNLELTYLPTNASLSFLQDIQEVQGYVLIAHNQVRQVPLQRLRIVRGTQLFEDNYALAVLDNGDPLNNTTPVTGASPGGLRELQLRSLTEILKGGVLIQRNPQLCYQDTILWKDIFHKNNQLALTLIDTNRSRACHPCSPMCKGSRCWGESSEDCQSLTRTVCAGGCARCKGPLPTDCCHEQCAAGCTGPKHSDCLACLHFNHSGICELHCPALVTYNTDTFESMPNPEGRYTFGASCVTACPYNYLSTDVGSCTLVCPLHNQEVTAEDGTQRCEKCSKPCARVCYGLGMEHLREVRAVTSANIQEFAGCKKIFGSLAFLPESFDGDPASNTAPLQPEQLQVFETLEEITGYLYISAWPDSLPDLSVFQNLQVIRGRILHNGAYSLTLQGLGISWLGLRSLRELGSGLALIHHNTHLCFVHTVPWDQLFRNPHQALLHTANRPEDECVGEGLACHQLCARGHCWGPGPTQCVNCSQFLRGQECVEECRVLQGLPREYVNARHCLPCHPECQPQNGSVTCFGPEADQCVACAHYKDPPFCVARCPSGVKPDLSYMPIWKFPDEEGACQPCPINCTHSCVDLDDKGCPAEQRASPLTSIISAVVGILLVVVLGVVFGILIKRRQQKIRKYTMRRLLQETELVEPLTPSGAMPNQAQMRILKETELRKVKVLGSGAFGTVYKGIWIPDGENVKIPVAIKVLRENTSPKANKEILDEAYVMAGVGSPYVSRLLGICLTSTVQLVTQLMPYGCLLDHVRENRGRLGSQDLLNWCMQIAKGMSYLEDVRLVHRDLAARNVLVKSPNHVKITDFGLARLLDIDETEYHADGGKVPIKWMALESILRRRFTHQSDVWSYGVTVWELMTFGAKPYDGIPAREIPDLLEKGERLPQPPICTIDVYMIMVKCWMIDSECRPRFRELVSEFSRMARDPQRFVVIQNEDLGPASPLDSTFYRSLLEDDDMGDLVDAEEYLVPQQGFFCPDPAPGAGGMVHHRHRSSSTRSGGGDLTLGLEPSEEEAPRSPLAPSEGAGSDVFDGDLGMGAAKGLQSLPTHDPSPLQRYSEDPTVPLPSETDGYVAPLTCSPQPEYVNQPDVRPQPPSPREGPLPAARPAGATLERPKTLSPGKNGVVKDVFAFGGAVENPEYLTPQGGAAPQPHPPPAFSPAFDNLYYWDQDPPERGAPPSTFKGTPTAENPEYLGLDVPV
Assay: Radiometric kinase assay (Reaction Biology HotSpot)
Format: biochemical
Conditions: 200 nM compound, duplicate mean, [ATP] = 10 μM; read-out: Residual Activity @ 200 nM, HER2
Description: If not mentioned differently, in vitro profiling of compounds was performed at Reaction Biology Corporation using the HotSpot™ assay platform.

COMPOUND: CCC(=O)Nc1cccc(-c2c[nH]c3ncc(NC(=O)C4CCCC4)cc23)c1 [Compound 12b]
SYSTEM NAME: HER2 (Homo sapiens)
remaining activity at 0.2 µM: > 100%

COMPOUND: C=CC(=O)Nc1cccc(-c2c[nH]c3ncc(C(N)=O)cc23)c1 [Compound 10a]
SYSTEM NAME: HER2 (Homo sapiens)
remaining activity at 0.2 µM: 97%

COMPOUND: C=CC(=O)Nc1cccc(-c2c[nH]c3ncc(NC(=O)c4cccs4)cc23)c1 [Compound 12c]
SYSTEM NAME: HER2 (Homo sapiens)
remaining activity at 0.2 µM: 41.1%

COMPOUND: C=CC(=O)Nc1cccc(-c2c[nH]c3ncccc23)c1 [Compound 9a]
SYSTEM NAME: HER2 (Homo sapiens)
remaining activity at 0.2 µM: 95%
